assayedSystem: DNA ligase (UniProt B1XA82)
Sequence (B1XA82 whole entry): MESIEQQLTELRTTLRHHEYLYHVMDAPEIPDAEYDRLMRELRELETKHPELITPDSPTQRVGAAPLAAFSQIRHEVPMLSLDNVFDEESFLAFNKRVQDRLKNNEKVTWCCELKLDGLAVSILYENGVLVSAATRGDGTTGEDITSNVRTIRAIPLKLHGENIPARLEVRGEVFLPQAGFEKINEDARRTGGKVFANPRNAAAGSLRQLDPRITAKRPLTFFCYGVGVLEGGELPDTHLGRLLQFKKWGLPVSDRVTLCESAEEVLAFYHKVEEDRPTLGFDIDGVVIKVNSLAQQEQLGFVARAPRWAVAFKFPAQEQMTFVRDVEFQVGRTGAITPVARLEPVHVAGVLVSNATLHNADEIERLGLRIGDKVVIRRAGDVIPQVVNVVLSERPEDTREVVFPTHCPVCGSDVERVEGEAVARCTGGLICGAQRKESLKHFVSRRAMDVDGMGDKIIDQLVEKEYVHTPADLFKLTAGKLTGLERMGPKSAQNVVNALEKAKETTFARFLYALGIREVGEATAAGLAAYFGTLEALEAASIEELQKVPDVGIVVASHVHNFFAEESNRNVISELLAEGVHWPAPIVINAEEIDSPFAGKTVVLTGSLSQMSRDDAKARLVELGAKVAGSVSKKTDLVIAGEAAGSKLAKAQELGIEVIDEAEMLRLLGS
protocolText: relative enzymatic activity vs untreated control (fraction); higher = less inhibition
conditions: 100 µM; incubation time: 2 h at 37 C
Kind request: treat 1 as inclusive, so relative enzymatic activity at 1 or higher is TRUE, anything lower is FALSE.

# example entries with known answers
compound	cat
CO/N=C(\C(=O)N[C@@H]1C(=O)N2C(C(=O)O)=C(CSc3nnnn3C)CS[C@H]12)c1csc(N)n1	FALSE
CCCCCCCCCCCCCCCC[N+](C)(C)C	FALSE
CC1c2cccc(O)c2C(=O)C2=C(O)C3(O)C(=O)C(C(N)=O)=C(O)C(N(C)C)C3C(O)C21.Cl (stereo not given)	TRUE
CO/N=C(\C(=O)N[C@@H]1C(=O)N2C(C(=O)O)=C(C[n+]3ccn4ncccc43)CS[C@H]12)c1nsc(N)n1	FALSE
CC1(C)S[C@@H]2[C@H](NC(=O)[C@H](N)c3ccccc3)C(=O)N2[C@H]1C(=O)OCOC(=O)[C@@H]1N2C(=O)C[C@H]2S(=O)(=O)C1(C)C	FALSE
CON=C(C(=O)N[C@@H]1C(=O)N2C(C(=O)O)=C(CSc3nc(=O)c(O)nn3C)CS[C@H]12)c1csc(N)n1	FALSE
CNC1C(OC2C(OC3C(O)C(O)C(NC(=N)N)C(O)C3NC(=N)N)OC(C)C2(O)CO)OC(CO)C(O)C1O.O=S(=O)(O)O (stereo not given)	TRUE
CO/N=C(\C(=O)N[C@@H]1C(=O)N2C(C(=O)O)=C(CSC(=O)c3ccco3)CS[C@H]12)c1csc(N)n1	FALSE

Lookup: Please indicate if the recorded relative enzymatic activity for CCC1OC(=O)C(C)C(OC2CC(C)(OC)C(O)C(C)O2)C(C)C(OC2OC(C)CC(N(C)C)C2O)C(C)(O)CC(C)CN(C)C(C)C(O)C1(C)O (stereo not given) meets or exceeds 1.
Found: TRUE

Lookup: Please indicate if the recorded relative enzymatic activity for NCCCC[C@H](NC(=O)[C@@H](NC(=O)[C@H](Cc1c[nH]c2ccccc12)NC(=O)[C@H](CCCCN)NC(=O)[C@H](CCCCN)NC(=O)[C@H](Cc1c[nH]c2ccccc12)NC(=O)[C@H](Cc1c[nH]c2ccccc12)NC(=O)[C@H](CCCCN)NC(=O)[C@@H](N)CCCCN)C(c1ccccc1)c1ccccc1)C(N)=O meets or exceeds 1.
Found: TRUE

Lookup: Please indicate if the recorded relative enzymatic activity for CC(NCCCc1cccc(C(F)(F)F)c1)c1cccc2ccccc12.Cl (stereo not given) meets or exceeds 1.
Found: TRUE

Lookup: Please indicate if the recorded relative enzymatic activity for NC(C(=O)NC1C(=O)N2C(C(=O)O)=C(Cl)CSC12)c1ccccc1 (stereo not given) meets or exceeds 1.
Found: TRUE

Lookup: Please indicate if the recorded relative enzymatic activity for CN(C)C1C(O)=C(C(N)=O)C(=O)C2(O)C(O)=C3C(=O)c4c(O)cccc4C(C)(O)C3C(O)C12.Cl (stereo not given) meets or exceeds 1.
Found: FALSE

Lookup: Please indicate if the recorded relative enzymatic activity for CC1CCc2c(N3CCC(O)CC3)c(F)cc3c(=O)c(C(=O)O)cn1c23 (stereo not given) meets or exceeds 1.
Found: FALSE

====

assayedSystem: MurC (UniProt C4ZRI6)
Sequence (C4ZRI6 whole entry, looked up): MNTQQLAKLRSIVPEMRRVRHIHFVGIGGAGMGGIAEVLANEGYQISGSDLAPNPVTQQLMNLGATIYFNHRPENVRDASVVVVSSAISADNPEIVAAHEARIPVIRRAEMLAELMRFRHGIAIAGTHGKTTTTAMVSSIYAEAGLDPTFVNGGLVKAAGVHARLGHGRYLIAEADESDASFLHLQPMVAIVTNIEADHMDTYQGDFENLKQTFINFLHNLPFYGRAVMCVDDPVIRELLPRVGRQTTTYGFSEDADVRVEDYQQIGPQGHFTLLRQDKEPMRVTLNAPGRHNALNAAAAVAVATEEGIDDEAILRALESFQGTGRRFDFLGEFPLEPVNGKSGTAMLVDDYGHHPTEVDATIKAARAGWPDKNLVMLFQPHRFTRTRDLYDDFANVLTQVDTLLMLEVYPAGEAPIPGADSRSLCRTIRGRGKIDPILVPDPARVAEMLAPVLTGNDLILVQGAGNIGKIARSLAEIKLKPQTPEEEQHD
protocolText: relative enzymatic activity vs untreated control (fraction); higher = less inhibition
conditions: 100 µM; incubation time: 2 h at 37 C
valueKind: relative enzymatic activity
Just the number, please.

See these solved cases before continuing.
molecule	valueKind	measurement
CCn1cc(C(=O)O)c(=O)c2cc(F)c(N3CCNC(C)C3)c(F)c21.Cl (stereo not given)	relative enzymatic activity	0.984
C=CC1=C(C(=O)O)N2C(=O)[C@@H](NC(=O)/C(=N\O)c3csc(N)n3)[C@H]2SC1	relative enzymatic activity	1
CN(C)CCC=C1c2ccccc2COc2ccc(CC(=O)O)cc21.Cl	relative enzymatic activity	0.905
CN1CCN(c2cc3c(cc2F)c(=O)c(C(=O)O)cn3-c2ccc(F)cc2)CC1.Cl	relative enzymatic activity	0.981
CCN1CCN(C(=O)NC(C(=O)NC2C(=O)N3C2SC(C)(C)C3C(=O)[O-])c2ccccc2)C(=O)C1=O.[Na+] (stereo not given)	relative enzymatic activity	0.951
Cc1scc2c1N(C(=O)CN1CCN(C)CC1)c1ccccc1NC2=O.Cl	relative enzymatic activity	0.945
CC[C@H](C)C[C@H](C)CCCCCCCCC(=O)N[C@H]1C[C@@H](O)[C@@H](NCCN)NC(=O)[C@@H]2[C@@H](O)CCN2C(=O)[C@H]([C@H](O)CCN)NC(=O)[C@H]([C@H](O)[C@@H](O)c2ccc(O)cc2)NC(=O)[C@@H]2C[C@@H](O)CN2C(=O)[C@H]([C@@H](C)O)NC1=O	relative enzymatic activity	0.94
O=C1OCCN1N=Cc1ccc([N+](=O)[O-])o1	relative enzymatic activity	1.03

Lookup: Return relative enzymatic activity measured with MurC (UniProt C4ZRI6) given this molecule: CNC1C(OC2C(OC3C(O)C(O)C(NC(=N)N)C(O)C3NC(=N)N)OC(C)C2(O)CO)OC(CO)C(O)C1O.O=S(=O)(O)O (stereo not given)
Found: 1.1

Lookup: Return relative enzymatic activity measured with MurC (UniProt C4ZRI6) given this molecule: O=c1[nH]c(=O)n([C@@H]2C[C@@H](O)[C@@H](CO)O2)cc1F
Found: 1.02

Lookup: Return relative enzymatic activity measured with MurC (UniProt C4ZRI6) given this molecule: Cl.Cl.N=C(NCCCCCCNC(=N)NC(=N)Nc1ccc(Cl)cc1)NC(=N)Nc1ccc(Cl)cc1
Found: 0.901

====

assayedSystem: DNA primase (UniProt P0ABS7)
Sequence (P0ABS7 whole entry): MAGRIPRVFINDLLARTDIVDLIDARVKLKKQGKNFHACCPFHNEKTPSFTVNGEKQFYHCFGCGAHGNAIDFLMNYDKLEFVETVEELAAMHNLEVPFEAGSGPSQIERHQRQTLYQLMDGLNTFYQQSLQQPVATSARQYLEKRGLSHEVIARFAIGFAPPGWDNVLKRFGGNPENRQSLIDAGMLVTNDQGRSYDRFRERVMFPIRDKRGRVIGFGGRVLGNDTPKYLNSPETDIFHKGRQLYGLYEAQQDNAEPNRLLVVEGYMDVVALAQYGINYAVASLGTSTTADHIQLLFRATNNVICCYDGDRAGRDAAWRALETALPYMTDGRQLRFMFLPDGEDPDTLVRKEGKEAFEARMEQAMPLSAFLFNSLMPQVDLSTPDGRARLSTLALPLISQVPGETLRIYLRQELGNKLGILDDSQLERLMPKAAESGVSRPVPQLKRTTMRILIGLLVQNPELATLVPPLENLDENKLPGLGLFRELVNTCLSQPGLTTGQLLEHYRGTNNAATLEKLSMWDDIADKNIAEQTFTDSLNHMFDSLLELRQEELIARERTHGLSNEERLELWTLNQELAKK
protocolText: relative enzymatic activity vs untreated control (fraction); higher = less inhibition
conditions: 100 µM; incubation time: 2 h at 37 C
valueKind: relative enzymatic activity
Just the number, please.

See these solved cases before continuing.
sampleSmiles	assayedSystem	relative enzymatic activity
CCn1cc(C(=O)O)c(=O)c2cc(F)c(N3CCN(C(=S)Nc4cc(C(F)(F)F)ccc4Cl)CC3)cc21	DNA primase (UniProt P0ABS7)	1.49
Cc1cc(C2CCCCC2)n(O)c(=O)c1.NCCO	DNA primase (UniProt P0ABS7)	0.751

Lookup: Return relative enzymatic activity measured with DNA primase (UniProt P0ABS7) given this compound: NCCONC(=O)[C@@H]1CC[C@@H]2CN1C(=O)N2OS(=O)(=O)O
Found: 0.762

Lookup: Return relative enzymatic activity measured with DNA primase (UniProt P0ABS7) given this compound: CCCCCCCCCCCCC[N+](C)(C)Cc1ccccc1
Found: 0.787

Lookup: Return relative enzymatic activity measured with DNA primase (UniProt P0ABS7) given this compound: CO[C@@H]1[C@@H](OC(=O)c2ccc(C)[nH]2)[C@@H](O)[C@@H](Oc2ccc3c(c2C)OC(=O)[C@H](NC(=O)c2[nH]cc(CC(=O)Nc4cc5ccc(O[C@@H]6OC(C)(C)[C@H](OC)[C@@H](OC(=O)c7ccc(C)[nH]7)[C@H]6O)c(C)c5oc4=O)c2C)C3)CC1(C)C
Found: 0.876

====

assayedSystem: MurC (UniProt C4ZRI6)
protocolText: relative enzymatic activity vs untreated control (fraction); higher = less inhibition
conditions: 100 µM; incubation time: 2 h at 37 C
valueKind: relative enzymatic activity
Just the number, please.

See these solved cases before continuing.
compound	relative enzymatic activity
Cl.O=C(O)c1cn(-c2ccc(F)cc2)c2cc(N3CCNCC3)c(F)cc2c1=O	0.836
COC1=C(N)C(=O)c2nc(-c3nc(C(=O)O)c(C)c(-c4ccc(OC)c(OC)c4O)c3N)ccc2C1=O	1.31
COc1ccc2c(c1OC)C(=O)OC2C1c2c(cc3c(c2OC)OCO3)CCN1C.Cl (stereo unspecified)	1.45
O=C(NC(CO)C(O)c1ccc([N+](=O)[O-])cc1)C(Cl)Cl (stereo unspecified)	1.04

Lookup: If you can, please state the reported relative enzymatic activity value of COC(=O)N/N=C/c1ccc([N+](=O)[O-])o1 .
Found: 1.01

Lookup: If you can, please state the reported relative enzymatic activity value of Cc1nnc(SCC2=C(C(=O)[O-])N3C(=O)C(NC(=O)Cn4cnnn4)C3SC2)s1.[Na+] (stereo unspecified) .
Found: 1.05

Lookup: If you can, please state the reported relative enzymatic activity value of COC1(NC(=O)C2SC(=C(C(N)=O)C(=O)O)S2)C(=O)N2C(C(=O)O)=C(CSc3nnnn3C)CSC21 (stereo unspecified) .
Found: 0.978

Lookup: If you can, please state the reported relative enzymatic activity value of CC1C(NC(=O)C(=NOC(C)(C)C(=O)O)c2csc(N)n2)C(=O)N1S(=O)(=O)O (stereo unspecified) .
Found: 1.02

Lookup: If you can, please state the reported relative enzymatic activity value of Cc1c(N)nc([C@H](CC(N)=O)NC[C@H](N)C(N)=O)nc1C(=O)N[C@H](C(=O)N[C@H](C)[C@@H](O)[C@H](C)C(=O)N[C@H](C(=O)NCCc1nc(-c2nc(C(=O)NCCCNCCCCN)cs2)cs1)[C@@H](C)O)[C@@H](O[C@@H]1O[C@@H](CO)[C@@H](O)[C@H](O)[C@@H]1O[C@@H]1O[C@H](CO)[C@@H](O)[C@H](OC(N)=O)[C@@H]1O)c1c[nH]cn1 .
Found: 1.01

Lookup: If you can, please state the reported relative enzymatic activity value of NC(=O)[C@@H]1CC[C@@H]2CN1C(=O)N2OS(=O)(=O)O .
Found: 1.04

Lookup: If you can, please state the reported relative enzymatic activity value of CCCN1C[C@H](C)[C@@H](O)[C@](C)(O)[C@@H](CC)OC(=O)[C@H](C)[C@@H](O[C@H]2C[C@@](C)(OC)[C@@H](O)[C@H](C)O2)[C@H](C)[C@@H](O[C@@H]2O[C@H](C)C[C@H](N(C)C)[C@H]2O)[C@](C)(O)C[C@H]1C .
Found: 1.02

Lookup: If you can, please state the reported relative enzymatic activity value of CCCCCCCCCCCCCCCC[N+](C)(C)Cc1ccccc1.[Cl-] .
Found: 0.176

Lookup: If you can, please state the reported relative enzymatic activity value of CON=C(C(=O)NC1C(=O)N2C(C(=O)O)=C(C[N+]3(C)CCCC3)CSC12)c1csc(N)n1.[Cl-] (stereo unspecified) .
Found: 0.984
